The following compounds are listed with their measured viability, T/C values.
system: 242566-281-R-J2-PDC complex spheroid viability; assay: Anticancer human tumor 242566-281-R-J2-PDC patient-derived pancreatic carcinoma cell line growth inhibition [RAS]; conditions: second compound 1 µM; first compound 0.0316 µM; stronger effect = lower value
Note: unit % is implicit; provide only the numeric part.

C=CC(=O)N1CCN(c2nc(OCC3CCCN3C)nc3c(F)c(-c4nc(N)cc(C)c4C(F)(F)F)c(Cl)cc23)C(C)C1 (stereo not given) + C#Cc1c(F)ccc2cc(O)cc(-c3ncc4c(N5CC6CCC(C5)N6)nc(OCC56CCCN5CC(F)C6)nc4c3F)c12
48.4

Input: Please give the measured viability, T/C for this compound: CC1(O)CCCC1n1c(=O)c(C(F)F)cc2cnc(NC3CCN(S(C)(=O)=O)CC3)nc21 (stereo not given) + C=CC(=O)N1CCN(c2nc(OCC3CCCN3C)nc3c(F)c(-c4nc(N)cc(C)c4C(F)(F)F)c(Cl)cc23)C(C)C1
Output: 92.1

Input: Further, for Cc1nc(N2CCC3(CC2)COC(C)C3N)c(CO)nc1Sc1ccnc(N)c1Cl (stereo not given) + C=CC(=O)N1CCN(c2nc(OCC3CCCN3C)nc3c(F)c(-c4nc(N)cc(C)c4C(F)(F)F)c(Cl)cc23)C(C)C1 ?
Output: 141

Input: Further, for CC(C)n1nc(-c2ccc3oc(N)nc3c2)c2c(N)ncnc21 + C=CC(=O)N1CCN(c2nc(OCC3CCCN3C)nc3c(F)c(-c4nc(N)cc(C)c4C(F)(F)F)c(Cl)cc23)C(C)C1 ?
Output: 75.2

Input: Further, for CC(C)NCC(C(=O)N1CCN(c2ncnc3c2C(C)CC3O)CC1)c1ccc(Cl)cc1 (stereo not given) + C=CC(=O)N1CCN(c2nc(OCC3CCCN3C)nc3c(F)c(-c4nc(N)cc(C)c4C(F)(F)F)c(Cl)cc23)C(C)C1 ?
Output: 99.6

----------
system: 242566-281-R-J2-PDC complex spheroid viability; test: Anticancer human tumor 242566-281-R-J2-PDC cell line growth inhibition [RAS]; details: curve of first compound; second compound 1 µM;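 note: spheroids exposed to compound for 7 days before readout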
The following compounds are listed with their measured pIC50 values.
API: returns pIC50 as number; meaning -log10 of concentration in mol/L.

Guide cases for pIC50, answers given:
CCc1c2c(nc3ccc(O)cc13)-c1cc3c(c(=O)n1C2)COC(=O)[C@]3(O)CC + C#Cc1c(F)ccc2cc(O)cc(-c3ncc4c(N5CC6CCC(C5)N6)nc(OCC56CCCN5CC(F)C6)nc4c3F)c12
8.18
CCc1c2c(nc3ccc(O)cc13)-c1cc3c(c(=O)n1C2)COC(=O)[C@]3(O)CC + C=CC(=O)N1CCN(c2nc(OCC3CCCN3C)nc3c(F)c(-c4nc(N)cc(C)c4C(F)(F)F)c(Cl)cc23)C(C)C1
7.29
C=CC(=O)Nc1cc(Nc2nccc(-c3cn(C)c4ccccc34)n2)c(OC)cc1N(C)CCN(C)C + C#Cc1c(F)ccc2cc(O)cc(-c3ncc4c(N5CC6CCC(C5)N6)nc(OCC56CCCN5CC(F)C6)nc4c3F)c12
7.60

Input: Under 242566-281-R-J2-PDC complex spheroid viability: pIC50 value of CC1(O)CCCC1n1c(=O)c(C(F)F)cc2cnc(NC3CCN(S(C)(=O)=O)CC3)nc21 (stereo not given) + C#Cc1c(F)ccc2cc(O)cc(-c3ncc4c(N5CC6CCC(C5)N6)nc(OCC56CCCN5CC(F)C6)nc4c3F)c12 ?
Output: 5.30

Input: Further, for CCN1CCN(Cc2ccc(Nc3ncc(F)c(-c4cc(F)c5nc(C)n(C(C)C)c5c4)n3)nc2)CC1 + C#Cc1c(F)ccc2cc(O)cc(-c3ncc4c(N5CC6CCC(C5)N6)nc(OCC56CCCN5CC(F)C6)nc4c3F)c12 ?
Output: 8.50
